Target: BRG-1 (Homo sapiens, UniProt P51532)
Sequence (P51532 whole entry): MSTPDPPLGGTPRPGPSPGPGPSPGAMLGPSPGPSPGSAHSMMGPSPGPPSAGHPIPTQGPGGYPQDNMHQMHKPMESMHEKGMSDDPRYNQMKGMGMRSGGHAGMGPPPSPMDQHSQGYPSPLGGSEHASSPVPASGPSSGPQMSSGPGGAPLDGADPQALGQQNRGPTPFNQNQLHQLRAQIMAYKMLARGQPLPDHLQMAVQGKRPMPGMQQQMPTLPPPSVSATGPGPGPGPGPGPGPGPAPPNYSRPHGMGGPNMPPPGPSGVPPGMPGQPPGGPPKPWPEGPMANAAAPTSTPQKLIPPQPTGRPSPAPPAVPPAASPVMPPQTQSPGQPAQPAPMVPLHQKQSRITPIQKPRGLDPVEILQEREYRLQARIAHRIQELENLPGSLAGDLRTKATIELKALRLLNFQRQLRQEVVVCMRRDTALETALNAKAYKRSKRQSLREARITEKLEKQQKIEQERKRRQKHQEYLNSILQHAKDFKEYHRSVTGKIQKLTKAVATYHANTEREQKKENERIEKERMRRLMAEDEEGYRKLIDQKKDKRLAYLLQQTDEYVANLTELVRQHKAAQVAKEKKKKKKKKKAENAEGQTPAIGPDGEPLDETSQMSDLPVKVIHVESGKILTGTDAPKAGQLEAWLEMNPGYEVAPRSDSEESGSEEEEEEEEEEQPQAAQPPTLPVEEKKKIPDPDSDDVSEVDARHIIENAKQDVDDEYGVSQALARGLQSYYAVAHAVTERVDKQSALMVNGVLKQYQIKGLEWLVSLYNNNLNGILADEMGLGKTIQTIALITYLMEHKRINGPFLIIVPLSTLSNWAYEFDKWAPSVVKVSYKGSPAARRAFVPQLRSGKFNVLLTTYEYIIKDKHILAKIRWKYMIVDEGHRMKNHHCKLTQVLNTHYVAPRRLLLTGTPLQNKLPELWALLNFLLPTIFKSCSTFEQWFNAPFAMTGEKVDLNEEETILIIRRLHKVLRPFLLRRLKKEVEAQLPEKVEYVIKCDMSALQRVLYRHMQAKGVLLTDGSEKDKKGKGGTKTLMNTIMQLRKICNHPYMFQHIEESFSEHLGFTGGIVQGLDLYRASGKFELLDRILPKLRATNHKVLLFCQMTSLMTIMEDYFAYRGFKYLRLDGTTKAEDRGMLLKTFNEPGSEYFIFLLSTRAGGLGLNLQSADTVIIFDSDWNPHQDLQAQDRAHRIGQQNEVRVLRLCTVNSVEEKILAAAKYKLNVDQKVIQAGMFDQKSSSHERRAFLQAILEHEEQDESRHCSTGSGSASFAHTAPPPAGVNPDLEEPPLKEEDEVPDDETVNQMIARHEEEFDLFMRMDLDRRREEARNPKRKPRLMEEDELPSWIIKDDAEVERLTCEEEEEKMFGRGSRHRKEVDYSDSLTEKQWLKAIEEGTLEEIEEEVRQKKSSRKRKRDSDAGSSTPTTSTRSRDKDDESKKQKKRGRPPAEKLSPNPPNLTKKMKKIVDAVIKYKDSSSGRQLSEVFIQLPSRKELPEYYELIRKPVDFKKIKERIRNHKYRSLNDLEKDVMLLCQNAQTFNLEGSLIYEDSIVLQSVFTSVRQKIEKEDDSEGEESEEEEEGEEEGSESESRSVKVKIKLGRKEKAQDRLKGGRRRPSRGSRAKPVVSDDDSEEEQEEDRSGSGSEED
Experiment: ATPase catalytic activity assay (ADP-Glo), BRG-1
Settings: 1 h, read-out: BRG1 Max % Inhibition, ADP-Glo, 30 nM BRG-1, 400 μM ATP
measuredProperty: Emax (%)
State the answer as a number, implicitly in %.

{"lineNotation": "CC(=O)N1CCOc2c(-c3ccc4cnc(CNC(=O)c5ccc6c(c5)[C@](C)(C#N)COC6)cc4n3)cccc21", "observedValue": 80}

# input compound: `C[C@@]1(C#N)COCc2ccc(C(=O)NCc3cc4nc(-c5ccc(N6CCC6)nc5)ccc4cn3)cc21` ; wanted: its Emax
80

# input compound: `C[C@@]1(C#N)COCc2ccc(C(=O)NCc3ncc4ccc(-c5ccccc5)cc4n3)cc21` ; wanted: its Emax
83

Origin of measurements: patent US12441726B2
